- Test details: In vivo oral administration pharmacokinetics in mice
- Measurement conditions: mouse
Each entry gets False if its Cmax stays under 1000 ng/mL, and True if its Cmax is 1000 ng/mL or above.

{"Compound structure string": "Cc1nn(-c2cncc(F)c2)c(C)c1-c1cc(N2CCOC[C@H]2C)nc(-c2cc(CO)cc3[nH]ccc23)n1", "Assigned category": "False"}
{"Compound structure string": "CNc1nc2ccccc2n1-c1nc(-c2c(C)nn(-c3cncc(F)c3)c2C)cc(N2CCOC[C@H]2C)n1", "Assigned category": "True"}
{"Compound structure string": "Cc1nn(-c2cncc(F)c2)c(C)c1-c1cc(N2CCOC[C@H]2C)nc(-c2cc(F)cc3[nH]ccc23)n1", "Assigned category": "True"}
{"Compound structure string": "Cc1nn(-c2cncc(F)c2)c(C)c1-c1cc(N2CCOC[C@H]2C)nc(-c2cccc3[nH]ccc23)n1", "Assigned category": "False"}
{"Compound structure string": "Cc1nn(-c2cncc(F)c2)c(C)c1-c1cc(N2CCOC[C@H]2C)nc(-c2ccnc3[nH]ccc23)n1", "Assigned category": "False"}
